# ASSAY_METHOD_TEXT: Kinetic aqueous solubility in PBS pH 7.4 (HPLC-CAD)
# Format: physicochemical
# CONDITION_SET: phosphate buffered saline (PBS), pH 7.4, aqueous buffer, kinetic from dmso stock, PBS pH7.4, room temperature, 1 hour equilibration
Structures can show the parent of a compound that is named as a salt.
# maps each entry to its solubility at 1 h
ENDPOINT: solubility at 1 h

In [3]: df
Out[3]:
                                   compound           endpoint        result
0  N[C@@H]1CCCC[C@@H]1NC(=O)c1ccc(-c2cncc(-c3cncc(F)c3)n2)cc1 [Example 9, ditrifluoroacetic acid salt]  solubility at 1 h     115 µg/mL
1  N[C@@H]1CCCC[C@@H]1NC(=O)c1ccc(-c2cncc(-c3cncc(F)c3)n2)cc1 [Example 8, dihydrochloride]  solubility at 1 h   ≥ 106 µg/mL
2  NC1(CNC(=O)c2ccc(-c3cncc(-c4cncc(F)c4)n3)cc2)CC1 [Example 5, dihydrochloride]  solubility at 1 h   ≥ 114 µg/mL
3  NC1(CNC(=O)c2ccc(-c3cncc(-c4cncc(F)c4)n3)cc2)CCC1 [Example 1, ditrifluoroacetic acid salt]  solubility at 1 h   ≥ 124 µg/mL
4  CC(C)(N)CNC(=O)c1ccc(-c2cncc(-c3cncc(F)c3)n2)cc1 [Example 7, ditrifluoroacetic acid salt]  solubility at 1 h  ≥ 84.4 µg/mL
5  NC1(CNC(=O)c2ccc(-c3cncc(-c4cncc(F)c4)n3)cc2)CC1 [Example 6, ditrifluoroacetic acid salt]  solubility at 1 h   ≥ 200 µg/mL
6  NC1(CNC(=O)c2ccc(-c3cncc(-c4cncc(F)c4)n3)cc2)CCC1 [Example 2, dihydrochloride]  solubility at 1 h   ≥ 126 µg/mL

###

Listing of entries alongside the reported solubility at 4 h.
# ASSAY_METHOD_TEXT: physchem
# CONDITION_SET: Fasted State Simulated Intestinal Fluid (FaSSIF), pH 6.5, fassif, thermodynamic from solid
Counter-ions that a name gives are not always drawn.
ENDPOINT: solubility at 4 h (µg/mL)

>>> print(df.to_string())
                                   compound           endpoint  units_label  result
0  N[C@@H]1CCCC[C@@H]1NC(=O)c1ccc(-c2cncc(-c3cncc(F)c3)n2)cc1 [Example 9, ditrifluoroacetic acid salt]  solubility at 4 h        µg/mL     789
1  NC1(CNC(=O)c2ccc(-c3cncc(-c4cncc(F)c4)n3)cc2)CCC1 [Example 2, dihydrochloride]  solubility at 4 h        µg/mL     398
2  CC(C)(N)CNC(=O)c1ccc(-c2cncc(-c3cncc(F)c3)n2)cc1 [Example 7, ditrifluoroacetic acid salt]  solubility at 4 h        µg/mL     742
3  NC1(CNC(=O)c2ccc(-c3cncc(-c4cncc(F)c4)n3)cc2)CC1 [Example 6, ditrifluoroacetic acid salt]  solubility at 4 h        µg/mL     339

###

# ASSAY_METHOD_TEXT: Kinetic aqueous solubility in PBS pH 7.4 (HPLC-CAD)
# Format: physicochemical
# CONDITION_SET: phosphate buffered saline (PBS), pH 7.4, aqueous buffer, kinetic from dmso stock, PBS pH7.4, room temperature, 1 hour equilibration, read-out: Concentration
Structures can show the parent of a compound that is named as a salt.
The following compounds are listed with their measured solubility kinetic at 1 h values.
ENDPOINT: solubility kinetic at 1 h

In [3]: df
Out[3]:
                                   compound    result
0  NC1(CNC(=O)c2ccc(-c3cncc(-c4cncc(F)c4)n3)cc2)CCC1 [Example 1, ditrifluoroacetic acid salt]  ≥ 329 mM
1  NC1(CNC(=O)c2ccc(-c3cncc(-c4cncc(F)c4)n3)cc2)CC1 [Example 5, dihydrochloride]  ≥ 313 mM
2  N[C@@H]1CCCC[C@@H]1NC(=O)c1ccc(-c2cncc(-c3cncc(F)c3)n2)cc1 [Example 8, dihydrochloride]  ≥ 271 mM
3  CC(C)(N)CNC(=O)c1ccc(-c2cncc(-c3cncc(F)c3)n2)cc1 [Example 7, ditrifluoroacetic acid salt]  ≥ 231 mM
